- subject-of-test: Heat shock protein HSP90 (Homo sapiens, UniProt P07900+P08238)
- experimental-protocol: Inhibition of human HSP90 using BODIPY labelled geldanamycin as substrate by fluorescence polarization assay
- Assay type: protein assay
measurement-type: log10 of IC50 (log10 of the value in nM)
All values: log10 IC50 [nM].

N#Cc1cc2c(cc1Sc1nc3c(N)ncnc3n1CCC1CCN(C=O)CC1)OCO2
2.32
Nc1ncnc2c1nc(Sc1cc3c(cc1Br)OCO3)n2CC[C@H]1CCCCN1C=O
2.28
Nc1ncnc2c1nc(Sc1cc3c(cc1Br)OCO3)n2CCC1CCNCC1
2.67
CC(C)(N)C(=O)N1CCC(CCn2c(Sc3cc4c(cc3Br)OCO4)nc3c(N)ncnc32)CC1
2.26
C[C@@H](O)C(=O)N1CCC(CCn2c(Sc3cc4c(cc3Br)OCO4)nc3c(N)ncnc32)CC1
2.04

[in] Check the records and state log10 of IC50 for `CCCC(=O)N1CCC(CCn2c(Sc3cc4c(cc3Br)OCO4)nc3c(N)ncnc32)CC1`
[out] 2.48

[in] Tell me measured log10 of IC50 for `CC(C)N1CCC(CCn2c(Sc3cc4c(cc3Br)OCO4)nc3c(N)ncnc32)CC1` please.
[out] 2.95

[in] Report log10 of IC50 for `Nc1ncnc2c1nc(Sc1cc3c(cc1Br)OCO3)n2CCC1CCOCC1`
[out] 1.76

[in] Determine from records and report log10 of IC50 for `Nc1ncnc2c1nc(Sc1cc3c(cc1Br)OCCO3)n2CCC1CCN(C(=O)CO)CC1`
[out] 1.95
